# Test system: KM12
# experiment.summary: NCI tumour cell line growth inhibition, 48 h
The source made the active and inactive calls. Rule as the data show it: active = GI50 up to about 1.1 µM and inactive = higher. Peptide text beside a SMILES is read from it. * marks the point of attachment. Boc = CC(C)(C)OC(=O)*; OtBu = CC(C)(C)O*
The reader will find reported GI50 values listed item by item below.
quantity.name: GI50

| molecule | quantity.name | reading |
| --- | --- | --- |
| CC(=O)C1CC=C(C)CC1 (stereo not drawn) | GI50 | > 100 µM (inactive) |
| Cc1ccc(Nc2nc3ccccc3c(=O)n2N)cc1 | GI50 | > 100 µM (inactive) |
| CCOc1ccccc1N1C(=O)C(=O)C(c2nc3ccccc3o2)/C(=N\N)C1=O (stereo not drawn) | GI50 | > 100 µM (inactive) |
| CCN(CC)c1ccc2cc(-c3csc(C)n3)c(=O)oc2c1 | GI50 | 13.5 µM (inactive) |
| COC(=O)C1=C(c2ccc3c(c2)OCO3)O[C@H](c2cc(OC)c(OC)c(OC)c2)[C@H]1COC(C)=O | GI50 | 4.31 µM (inactive) |
| CC(C)(C)OC(=O)CC(NC(=O)OC(C)(C)C)C(=O)NC(Cc1ccccc1)C(N)=O (stereo not drawn) (Boc-Asp(OtBu)-Phe-NH2; configuration not given here) | GI50 | > 100 µM (inactive) |
| CC(=O)Oc1ccc2cc(Oc3ccc(Cl)cc3)c(=O)oc2c1 | GI50 | 37.8 µM (inactive) |
| Fc1nc(Sc2ncnc3nc[nH]c23)nc(-c2c3ccccc3c3sc4ccccc4n23)n1 | GI50 | > 100 µM (inactive) |

====

# Test system: OVCAR-8
# experiment.summary: NCI tumour cell line growth inhibition, 48 h
Activity calls are given as the source filed them. No stated cut-off is given here; in the data, active = GI50 up to about 1.1 µM and inactive = higher.
Outcome codes: active, inactive

| compound | category.label |
| --- | --- |
| ON=C1CCC(c2ccccc2)CC1 (stereo unspecified) | inactive |
| CC1=C2C(c3ccccc3)(c3ccccc3)C3C=CC2(C=N3)N(C(=O)NC2CCCCC2)C1=O (stereo unspecified) | inactive |
| Cc1cccnc1N/C=C1\C(=O)NC(=O)N(C)C1=O | inactive |
| CC1(C)CC(N(C(=O)/C=C/c2ccc([N+](=O)[O-])o2)C2CCCCC2)CC(C)(C)N1 | inactive |
| CC(=O)N1c2ccccc2C2=NN(C)C(=N)SC21 (stereo unspecified) | inactive |
| O=C(Nc1ccccc1C(=O)NCCCO)/C(=C/c1ccccc1O)NC(=O)c1ccccc1 | inactive |
| O=C(O)c1ccc(C2COc3ccc(Cl)cc3C2)cc1 (stereo unspecified) | inactive |
| O=[N+]([O-])C(=C(Nc1ccccc1)Nc1ccccc1)C(Cl)=C(Cl)Cl | inactive |
| Cc1cnc2nc(-c3cccc4ccccc34)cc(O)c2c1 | active |
| O=C1O/C(=C(/Br)c2ccc(Cl)c(Cl)c2)c2ccccc21 | inactive |
| CC1(C)CN(c2ccccc2)C(=O)C1OC(=O)[C@@]1(C)C[C@@H]2C=C[C@H]1C2 (stereo partly specified) | inactive |
| O=C1/C(=C/c2cccc3ccccc23)CCc2ccc([N+](=O)[O-])cc21 | inactive |
| O=C(N/C(=C\c1ccccc1[N+](=O)[O-])c1nc2ccccc2[nH]1)c1ccccc1 | inactive |
| CC(=O)OC12c3ccccc3-c3ccccc3C1C(C(=O)O)C2C(=O)O (stereo unspecified) | inactive |
| CCNc1nnc(-c2ccccc2Nc2ccccc2-c2nnc(NCC)s2)s1 | inactive |
| Cc1ccc(/N=C2\SC(=NN(C)C)S\C2=N/c2ccc(C)cc2)cc1 | inactive |
| CC(C)=CC1C(C(=O)OCc2cc3c(cc2Cl)OCO3)C1(C)C (stereo unspecified) | inactive |
| Cc1ccc(/N=N/C(=N\c2ccc(F)cc2)c2ccc(N(CCC#N)CCC#N)cc2)cc1 | inactive |
| NCCOc1ccc(/C(=C(/Cl)c2ccccc2)c2ccccc2)cc1 | inactive |
| Cc1cccc(C(C)(C)C)c1NC(=O)C(=O)C(c1cnc2ccccc2n1)[N+](=O)[O-] (stereo unspecified) | inactive |
| O=C1NC(=O)[C@H]2C3C=CC([C@@H]12)[C@@H]1C(=O)NC(=O)[C@H]31 | inactive |
